Test system: HeLa
PROTOCOL NOTES: Cytotoxicity against human HeLa MKYP cells assessed as percentage of DAPI-positive cells at 50 uM and measured by DAPI staining method
Format: toxicity, cell-based
Entries and their measured Activity follow.
Respond with the bare value in %.

Some molecules with recorded Activity:
{"MOLECULE": "C[C@@H]1CCc2ccccc2[C@H]1Nc1ncnc2[nH]c(C(F)(F)F)cc12", "QUANTITY KIND": "Activity", "U": "%", "RECORDED MEASUREMENT": 23.8}
{"MOLECULE": "CN(C)[C@H]1CCc2ccccc2[C@@H]1Nc1ncnc2[nH]c(C(F)(F)F)cc12", "QUANTITY KIND": "Activity", "U": "%", "RECORDED MEASUREMENT": 79.3}
{"MOLECULE": "Fc1ccc2c(c1)CCCC2Nc1ncnc2[nH]c(C(F)(F)F)cc12 (stereo not drawn)", "QUANTITY KIND": "Activity", "U": "%", "RECORDED MEASUREMENT": 30.1}
{"MOLECULE": "CCCCNc1ncnc2[nH]c(CC)cc12", "QUANTITY KIND": "Activity", "U": "%", "RECORDED MEASUREMENT": 93.4}
{"MOLECULE": "CN(C)C1CCC(CNc2ncnc3[nH]c(C(F)(F)F)cc23)CC1 (stereo not drawn)", "QUANTITY KIND": "Activity", "U": "%", "RECORDED MEASUREMENT": 5.2}
{"MOLECULE": "CC(Nc1ncnc2[nH]c(C3CC3)nc12)c1ccccc1 (stereo not drawn)", "QUANTITY KIND": "Activity", "U": "%", "RECORDED MEASUREMENT": 18.3}

Here's the next entry for you.
Param readout= Activity; system= HeLa; entry= CCCCNc1ncnc2[nH]c(C(F)(F)F)c(C)c12 ; returns value.
11.9

###

PROTOCOL NOTES: Induction of mitophagy in human HeLa MKYP cells treated at 6.3 uM with FCCP/oligomycin for 6 hrs and measured by FACS analysis relative to control
Assay type: functional
Simple rule here: Activity less than 20% is 1 (yes), otherwise 0 (no).

{"MOLECULE": "FC(F)(F)c1cc2c(NCc3ccccc3)ncnc2[nH]1", "GROUP LABEL": "0 (no)"}
{"MOLECULE": "CC(C)(Nc1ncnc2[nH]c(C(F)(F)F)cc12)c1ccccc1", "GROUP LABEL": "1 (yes)"}
{"MOLECULE": "CCCCNc1ncnc2[nH]c(C)cc12", "GROUP LABEL": "0 (no)"}
{"MOLECULE": "CCCCNc1ncnc2[nH]c(-c3ccnn3C)cc12", "GROUP LABEL": "1 (yes)"}
{"MOLECULE": "CCCCNc1ncnc2[nH]c(C(OCC)C(F)(F)F)cc12 (configuration not stated)", "GROUP LABEL": "1 (yes)"}
{"MOLECULE": "CCCCNc1ncnc2[nH]c(CC)cc12", "GROUP LABEL": "1 (yes)"}

Consider the additional molecule presented here.
Is it true that Activity reported for CC(Nc1ncnc2[nH]c(C(F)(F)F)cc12)c1ccccc1 (configuration not stated) is less than 20%?
0 (no)

###

PROTOCOL NOTES: Brain concentration in mouse at 50 mg/kg, po measured at 2 hrs
Type: ADME, organism-based
MEASUREMENT CONDITIONS: read-out: Drug uptake
QUANTITY KIND: concentration at 2 h (ng/g)
Expressed in ng/g, but write only the number.

Item under review: FC(F)(F)c1cc2c(NC3CCCc4ccccc43)ncnc2[nH]1 (stereo in doubt) . Reported concentration at 2 h?
3980

###

PROTOCOL NOTES: Kidney concentration in mouse at 10 mg/kg, po measured at 0.5 hrs
Type: ADME, organism-based
MEASUREMENT CONDITIONS: read-out: Drug uptake
QUANTITY KIND: concentration at 0.5 h (ng/g)
Hi! Could you send only the number? It should be in ng/g, unit omitted.

Recorded concentration at 0.5 h of FC(F)(F)c1cc2c(NC3CCCc4ccccc43)ncnc2[nH]1 (stereo in doubt) , please.
1050

###

PROTOCOL NOTES: Plasma concentration in mouse at 50 mg/kg, po measured at 0.5 hrs
Format: ADME, organism-based
QUANTITY KIND: concentration at 0.5 h (ng/g)
Note: unit ng/g is implicit; provide only the numeric part.

May I ask what concentration at 0.5 h has been recorded for FC(F)(F)c1cc2c(NC3CCCc4ccccc43)ncnc2[nH]1 (stereo in doubt) ?
1900

###

PROTOCOL NOTES: MRT (infinity) in mouse at 1 mg/kg, iv
Type: ADME, organism-based
MEASUREMENT CONDITIONS: in vivo
QUANTITY KIND: MRT inf (min)
// units = min; emit number, no label

So what does the record say about MRT inf for FC(F)(F)c1cc2c(NC3CCCc4ccccc43)ncnc2[nH]1 (stereo in doubt) ?
42

###

PROTOCOL NOTES: Observed AUC in mouse 50 mg/kg, po
Assay type: ADME, organism-based
Parameters: dose 50 mg/kg
MEASUREMENT CONDITIONS: in vivo
QUANTITY KIND: AUC
Report the figure along with its unit, number first.

Query: AUC; subject: FC(F)(F)c1cc2c(NC3CCCc4ccccc43)ncnc2[nH]1 (stereo in doubt)
27.4 µM·h

###

PROTOCOL NOTES: Observed AUC in mouse at 1 mg/kg, iv
Format: ADME, organism-based
Parameters: dose 1 mg/kg
MEASUREMENT CONDITIONS: in vivo
QUANTITY KIND: AUC (µM·h)
Give your result in µM·h as a bare value.

Item under review: FC(F)(F)c1cc2c(NC3CCCc4ccccc43)ncnc2[nH]1 (stereo in doubt) . Reported AUC?
1.4

###

Test system: HeLa
PROTOCOL NOTES: Cytotoxicity against human HeLa MKYP cells assessed as cell death at 25 uM and measured DAPI staining method assay relative to control
Assay type: toxicity, cell-based
QUANTITY KIND: Activity (%)
Could you give me the number in %? Just the number is fine.

{"MOLECULE": "CO[C@@H]1COc2ccccc2[C@H]1Nc1ncnc2[nH]c(C(F)(F)F)cc12", "SYSTEM": "HeLa", "U": "%", "Activity": 2.61}

# get_value(readout= Activity, system= HeLa) for COc1ccc2c(c1)[C@@H](Nc1ncnc3[nH]c(C(F)(F)F)cc13)CCC2
1.18

// map O[C@H]1Cc2ccccc2[C@@H]1Nc1ncnc2[nH]c(C(F)(F)F)cc12 to recorded Activity (system: HeLa)
2.51

###

PROTOCOL NOTES: Kidney concentration in mouse at 50 mg/kg, po measured at 0.5 hrs
Type: ADME, organism-based
MEASUREMENT CONDITIONS: read-out: Drug uptake
QUANTITY KIND: concentration at 0.5 h (ng/g)
Please respond with the number in ng/g and leave the unit unwritten.

Sample FC(F)(F)c1cc2c(NC3CCCc4ccccc43)ncnc2[nH]1 (stereo in doubt) — what was its concentration at 0.5 h?
6430

###

Listing: Activity of selected compounds
Test system: HeLa
PROTOCOL NOTES: Cytotoxicity against human HeLa MKYP cells assessed as cell death at 25 uM treated with FCCP/oliogmycin and measured DAPI staining method assay relative to control
Format: toxicity, cell-based

As a guide, the following entries are already answered.
{"COMPOUND": "O[C@H]1Cc2ccccc2[C@H]1Nc1ncnc2[nH]c(C(F)(F)F)cc12", "QUANTITY KIND": "Activity", "RECORDED MEASUREMENT": "21.2%"}
{"COMPOUND": "FC(F)(F)c1cc2c(NC3CCCc4ccccc43)ncnc2[nH]1 (stereo in doubt)", "QUANTITY KIND": "Activity", "RECORDED MEASUREMENT": "10.7%"}

Could you now look at the following compound, please?
What Activity value was documented for this compound, CO[C@@H]1CCc2ccccc2[C@H]1Nc1ncnc2[nH]c(C(F)(F)F)cc12 ?
18.4%

###

PROTOCOL NOTES: Kidney concentration in mouse at 10 mg/kg, po measured at 1 hr
Assay type: ADME, organism-based
MEASUREMENT CONDITIONS: read-out: Drug uptake
QUANTITY KIND: concentration at 1 h (ng/g)
Could you give me the number in ng/g? Just the number is fine.

Looking for the measured concentration at 1 h of FC(F)(F)c1cc2c(NC3CCCc4ccccc43)ncnc2[nH]1 (stereo in doubt) , can you help?
1290

###

PROTOCOL NOTES: Plasma concentration in mouse at 10 mg/kg, po measured at 0.5 hrs
Assay type: ADME, organism-based
QUANTITY KIND: concentration at 0.5 h

Which value of concentration at 0.5 h has been reported for FC(F)(F)c1cc2c(NC3CCCc4ccccc43)ncnc2[nH]1 (stereo in doubt) in the records?
372 ng/g

Data provenance is ChEMBL document CHEMBL5050850.
